Data origin: patent US12516053B2

biological target: recombinant human Bcl-2-G101V protein (Homo sapiens, UniProt P10415, G101V); experiment: Bcl-2-G101V TR-FRET assay; assay type: binding; conditions: TR-FRET, 0.1 nM Bcl-2-G101V, FITC labeled Bak peptide 5 nM; read-out: Biochemical assay (IC50, nM) Bcl-2 G101V
MEASURED METRIC: IC50 (nM)

**Q:** Can you share its IC50? I mean this compound: CC(C)c1ccccc1[C@@H]1CCCN1C1CC2(CCN(c3ccc(C(=O)NS(=O)(=O)c4ccc(NC[C@H]5CC[C@](C)(O)CC5)c([N+](=O)[O-])c4)c(N4c5cc6cc[nH]c6nc5OCC4C)c3)CC2)C1 (some centres unmarked)
**A:** 1.6

[1] CC(C)c1ccccc1[C@@H]1CCCN1C1CC2(CCN(c3ccc(C(=O)NS(=O)(=O)c4cc5c(c([N+](=O)[O-])c4)N[C@H](C[C@H]4CC[C@H](O)CC4)CO5)c(N4CCCOc5nc6[nH]ccc6cc54)c3)CC2)C1
[2] CC(C)c1ccccc1[C@@H]1CCCN1C1CC2(CCN(c3ccc(C(=O)NS(=O)(=O)c4cc5c(c([N+](=O)[O-])c4)N[C@H](C[C@H]4CC[C@@H](O)CC4)CO5)c(Oc4cnc5[nH]ccc5c4)c3)CC2)C1
[3] CC(C)c1ccccc1[C@@H]1CCCN1C1CC2(CCN(c3ccc(C(=O)NS(=O)(=O)c4ccc(NCC5(F)CCOCC5)c([N+](=O)[O-])c4)c(N4CCCOc5nc6[nH]ccc6cc54)c3)CC2)C1
**Q:** # ascending order, key=IC50 Reply with the labels, ordered as the question asks.
**A:** 2, 3, 1
(2: 0.83 nM, 3: 1.8 nM, 1: 3.3 nM)
